- test-system: T1, CRBN, Q96SW2;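 further: pooled lentiviral library of zinc finger degron-EGFP fusions in mCherry-positive Jurkat cells, FACS-sorted after compound exposure, with degron abundance counted by next-generation sequencing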
- T1 chain: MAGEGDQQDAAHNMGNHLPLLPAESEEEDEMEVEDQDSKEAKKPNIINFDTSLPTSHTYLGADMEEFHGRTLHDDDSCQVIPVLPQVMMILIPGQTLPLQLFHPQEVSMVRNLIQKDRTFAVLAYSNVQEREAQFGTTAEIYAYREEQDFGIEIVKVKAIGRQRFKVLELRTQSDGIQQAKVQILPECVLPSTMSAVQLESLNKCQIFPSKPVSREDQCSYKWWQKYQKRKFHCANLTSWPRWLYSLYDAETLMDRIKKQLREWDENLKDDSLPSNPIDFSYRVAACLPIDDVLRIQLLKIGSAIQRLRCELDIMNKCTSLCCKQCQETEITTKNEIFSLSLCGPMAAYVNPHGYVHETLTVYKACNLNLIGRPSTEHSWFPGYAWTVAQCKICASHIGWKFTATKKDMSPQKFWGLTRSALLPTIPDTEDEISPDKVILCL
- assay-summary: log2 fold change of degron read counts, EGFP-low vs EGFP+ sorted cells (limma voom), compound-induced degradation; higher = more compound-induced degradation of the degron-EGFP fusion; degrons are variants of IKZF1/3 zinc finger 2; compound dose not given here
- reported-conditions: Jurkat; 18 h; compound: compound 19 (5-tert-butyl-thalidomide)
The full ranking holds about 8,300 sequences; the median of “log2 fold change of degron read counts, EGFP-low vs EGFP+ sorted cells (limma voom), compound-induced degradation” is about -1.1, and the highest 2% start at about 3.2. For the sample, the highest values were picked, then their nearest neighbours and some sequences at random.
attribute-measured: log2 fold change of degron read counts
Answer with a bare number; do not write a unit.

Solved entries:
LVCNQCGFKCTQKGNLLRHIKL [46L_47V_49N_50Q_52G_53F_54K_55C_67L_, Q9UKT9] :: -2.22
FACEVCGAMFTQKGNLLRHIKL [46F_47A_49E_50V_52G_53A_54M_55F_67L_, Q9UKT9] :: 3.25
FFCEVCGAMFTQKGNLLRHIKL [46F_47F_49E_50V_52G_53A_54M_55F_67L_, Q9UKT9] :: 3.14
FKCNQCGRHFTQKGNLLRHIKL [46F_47K_49N_50Q_52G_53R_54H_55F_67L_, Q9UKT9] :: -2.42
FYCEVCGAMFTQKGNLLRHIKL [46F_47Y_49E_50V_52G_53A_54M_55F_67L_, Q9UKT9] :: 3.32
FKCEVCGAMFTQKGNLLRHIKL [46F_47K_49E_50V_52G_53A_54M_55F_67L_, Q9UKT9] :: -1.98
FQCEVCGAMFTQKGNLLRHIKL [46F_47Q_49E_50V_52G_53A_54M_55F_67L_, Q9UKT9] :: -0.365
FKCPICGRQFTQKGNLLRHIKL [46F_47K_49P_50I_52G_53R_54Q_55F_67L_, Q9UKT9] :: -2.24

Please look at the following sequence next.
The reported log2 fold change of degron read counts of the sequence FDCEVCGAMFTQKGNLLRHIKL [46F_47D_49E_50V_52G_53A_54M_55F_67L_, Q9UKT9] was -0.122
